- EXPERIMENTAL_TARGET: T1, WT mTfR-1 expressed on Expi293 cells (mouse, UniProt Q62351 1-763)
- T1 construct: whole, on cells
- T1 sequence (Q62351 whole entry): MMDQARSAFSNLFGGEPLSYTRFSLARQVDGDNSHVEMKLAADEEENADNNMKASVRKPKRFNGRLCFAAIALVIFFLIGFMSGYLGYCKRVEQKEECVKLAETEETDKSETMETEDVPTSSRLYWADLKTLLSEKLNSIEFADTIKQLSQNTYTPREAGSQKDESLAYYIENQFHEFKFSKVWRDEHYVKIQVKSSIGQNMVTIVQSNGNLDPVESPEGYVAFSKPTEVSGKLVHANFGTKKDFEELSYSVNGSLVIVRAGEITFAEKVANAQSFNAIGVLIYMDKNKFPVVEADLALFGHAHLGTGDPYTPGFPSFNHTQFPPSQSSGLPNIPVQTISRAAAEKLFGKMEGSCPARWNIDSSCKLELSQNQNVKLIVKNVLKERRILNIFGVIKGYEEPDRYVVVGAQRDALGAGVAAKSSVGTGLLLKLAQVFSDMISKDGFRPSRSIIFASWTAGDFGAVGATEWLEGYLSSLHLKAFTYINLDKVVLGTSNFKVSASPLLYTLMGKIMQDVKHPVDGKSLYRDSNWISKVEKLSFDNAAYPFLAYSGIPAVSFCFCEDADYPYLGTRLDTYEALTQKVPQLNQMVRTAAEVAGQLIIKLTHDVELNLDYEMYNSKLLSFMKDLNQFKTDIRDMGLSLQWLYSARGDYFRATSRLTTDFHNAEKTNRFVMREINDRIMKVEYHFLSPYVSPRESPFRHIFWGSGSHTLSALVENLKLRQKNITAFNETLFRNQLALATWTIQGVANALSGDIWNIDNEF
- PROTOCOL_SUMMARY: FACS, transfected Expi293 cells
- Protocol: Transfected Expi293 cells were harvested and 2×10⁵ cells were transferred into V-bottom 96-well plate for staining. […] The percentage of double-positive cells that stained with mTf and the tested antibody was determined on a CytoFlex cytometer (Beckman Coulter). […]
ASSAY_METRIC: % double-positive cells vs WT (%)
Kindly answer with a numeric value in %, unit omitted.

Which % double-positive cells vs WT reading was recorded for the binder 8D3 antibody (anti-mouse TfR-1 control; 8D3-hFc formatted antibody) (antibody, V domains shown) VH: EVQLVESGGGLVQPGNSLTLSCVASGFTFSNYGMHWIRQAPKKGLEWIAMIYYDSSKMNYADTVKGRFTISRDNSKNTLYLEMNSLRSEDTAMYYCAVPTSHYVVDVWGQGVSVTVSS VL: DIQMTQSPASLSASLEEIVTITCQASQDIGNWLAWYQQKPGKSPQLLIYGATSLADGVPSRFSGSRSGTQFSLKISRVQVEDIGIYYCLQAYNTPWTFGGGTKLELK ? 100

# lookup: % double-positive cells vs WT of Clone C VNAR-hFc fusion (Fc fusion, not shown: a dimerising Fc or GST, bivalent VNAR-Fc; also called Clone C-hFc) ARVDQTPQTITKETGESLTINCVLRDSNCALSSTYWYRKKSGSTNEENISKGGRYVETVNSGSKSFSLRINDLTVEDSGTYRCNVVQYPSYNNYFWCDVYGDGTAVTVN 100

Please report the recorded % double-positive cells vs WT for Clone C variant 13 VNAR-hFc (Fc fusion, not shown: a dimerising Fc or GST, also called Clone C v13; Clone C var; 13) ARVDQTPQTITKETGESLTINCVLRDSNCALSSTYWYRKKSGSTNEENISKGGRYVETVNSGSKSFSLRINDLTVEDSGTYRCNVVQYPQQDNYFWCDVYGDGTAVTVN . 100

Would you mind telling me what % double-positive cells vs WT value was observed for Clone C variant 18 VNAR-hFc (Fc fusion, not shown: a dimerising Fc or GST, also called Clone C v18; Clone C var; 18) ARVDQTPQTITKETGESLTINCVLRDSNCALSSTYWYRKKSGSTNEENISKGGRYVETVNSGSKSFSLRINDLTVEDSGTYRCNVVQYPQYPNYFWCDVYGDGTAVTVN ? 100
